target: T1, Murine Fibroblast Activation Protein (FAP) on B16 cells (mouse, UniProt P97321 1-761); test: flow cytometry, scFv-Fc on B16-FAP cells
T1 construct: B16 cells transduced with murine FAP cDNA; also called B16-FAP
T1 sequence (P97321 other isoform, or with tags, fused parts or gaps): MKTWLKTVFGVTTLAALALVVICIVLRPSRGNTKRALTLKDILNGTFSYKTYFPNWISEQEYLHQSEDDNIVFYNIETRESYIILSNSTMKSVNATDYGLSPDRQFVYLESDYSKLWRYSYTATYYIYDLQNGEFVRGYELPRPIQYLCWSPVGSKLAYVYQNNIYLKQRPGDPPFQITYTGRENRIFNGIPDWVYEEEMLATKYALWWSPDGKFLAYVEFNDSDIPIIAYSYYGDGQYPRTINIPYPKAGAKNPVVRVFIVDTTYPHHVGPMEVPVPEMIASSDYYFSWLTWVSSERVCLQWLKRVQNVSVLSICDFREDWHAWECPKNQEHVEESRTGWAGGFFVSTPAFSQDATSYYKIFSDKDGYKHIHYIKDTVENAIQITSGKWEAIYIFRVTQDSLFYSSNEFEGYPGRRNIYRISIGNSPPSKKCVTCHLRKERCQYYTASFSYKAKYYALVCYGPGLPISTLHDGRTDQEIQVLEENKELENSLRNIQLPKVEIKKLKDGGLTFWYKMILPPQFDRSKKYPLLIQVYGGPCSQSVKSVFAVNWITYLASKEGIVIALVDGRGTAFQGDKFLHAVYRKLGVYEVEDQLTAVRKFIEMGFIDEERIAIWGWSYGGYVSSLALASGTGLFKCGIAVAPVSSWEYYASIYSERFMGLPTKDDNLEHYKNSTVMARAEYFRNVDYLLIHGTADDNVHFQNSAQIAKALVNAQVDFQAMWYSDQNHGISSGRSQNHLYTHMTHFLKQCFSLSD
Measurement label: MFI (MFI)
# number only, unit MFI dropped from output

As a guide, the following entries are already answered.
>  <Binder>
FAP.63.D7 (Fc fusion, Tested as scFv-Fc; orientation, linker and Fc of this construct not specified) VH: DVQLVESGGGVVRPGESLRLSCAASGFTFSSYAMSWVRQTPGEGLEWVSFISSGGAYTHYTDSVKGRFTISRDNSKNTLYLQMNSLRAEDTAVYYCAKEKEIWNAFFDYWGLGTLVTVSS VL: EIVLTQSPATLNLSPGDRATLTCRASQTVGSKLAWYQQTSGQAPRLLIYDASSRATGIPDRFSGSGSGTEFTLTISSLEPEDFAVYVCQQYYDWPPLTFGGGTKVEIK

>  <MFI (MFI)>
3360

$$$$
>  <Binder>
FAP.84.B2 (Fc fusion, Tested as scFv-Fc; orientation, linker and Fc of this construct not specified) VH: DVQLVESGGGVVRPGESLRLSCAASGFSFSSYAMNWVRQAPGKGLEWVSAISGSGGGTFYADSVKGRFTISRDNSKNTLYLQMNSLRAEDTAIYYCAKDPFGYGFFDSWGLGTLVTVSS VL: EIVMTQSPATLSVSPGDRATLSCRASQTVGSKLAWYQQKPGQAPRLLIYAASSRATGIPDRFSGSGSGTDFTLTISSLEPEDFAVYYCQQYYNWPPAFGGGTKVEIK

>  <MFI (MFI)>
2260

$$$$

Consider the additional binder presented here.
q: Specify measured MFI for FAP.84.B7 (Fc fusion, Tested as scFv-Fc; orientation, linker and Fc of this construct not specified) VH: DVQLVESGGGVVRPGESLRLSCAASGFIFRNYAMTWVRQAPGEGLEWVSTIRSSGSGRTDTYYADSVKGRFTISRDSSNNTLYLQMNSLRAEDTAVYYCAKSGTFWDTFFDYWGLGTLVTVSS VL: EIVLTQNPGTLNLSPGERATLTCRASQSAGRNLAWYQQKPGQTPRLLIYDVNTRATGIPDRFSGSGSGTEFNLTISSLQNEDFAVYYCQQYNNWPPLTFGGGTKVEIK .
a: 1610
